Each recorded value in this set is attributed to ChEMBL document CHEMBL1136469.

assay: in vivo; details: dog, plasma
Description: Plasma clearance was measured in dog
readout label: clearance (mL/min/kg)
Give just the number in mL/min/kg; leave the unit off.

Asked: // query clearance value for entry "O=C(O)C[C@@H](c1ccc2c(c1)OCC2)N1CC[C@H](CCCc2ccc3c(n2)NCCC3)C1=O"
Given back: 22.9

Asked: // query clearance value for entry "O=C(O)C[C@@H](c1ccc2c(c1)OCC2)N1CC[C@@H](CCCc2ccc3c(n2)NCCC3)C1=O"
Given back: 2.1

---

Kindly state bioavailability for each of the entries shown.
test: in vivo; conditions: dog, po
Description: Oral bioavailability in dog
Give just the number in %; leave the unit off.

Asked: // query bioavailability value for entry "O=C(O)C[C@@H](c1ccc2c(c1)OCC2)N1CC[C@H](CCCc2ccc3c(n2)NCCC3)C1=O"
Given back: 11.5

Asked: // query bioavailability value for entry "O=C(O)C[C@@H](c1ccc2c(c1)OCC2)N1CC[C@@H](CCCc2ccc3c(n2)NCCC3)C1=O"
Given back: 52

---

// Integrin alpha-V/beta-3 (Homo sapiens, UniProt P05106+P06756) IC50 records
Give just the number in nM; leave the unit off.

Asked: // query IC50 value for entry "O=C(O)C[C@@H](c1ccc2c(c1)OCC2)N1CC[C@H](CCCc2ccc3c(n2)NCCC3)C1=O"
Given back: 0.22

Asked: // query IC50 value for entry "O=C(O)C[C@@H](c1ccc2c(c1)OCC2)N1CC[C@@H](CCCc2ccc3c(n2)NCCC3)C1=O"
Given back: 0.39

---

Kindly state half-life for each of the entries shown.
test: in vivo; conditions: dog
Description: Half-life was measured in dog
Give just the number in h; leave the unit off.

Asked: // query half-life value for entry "O=C(O)C[C@@H](c1ccc2c(c1)OCC2)N1CC[C@H](CCCc2ccc3c(n2)NCCC3)C1=O"
Given back: 1.5

Asked: // query half-life value for entry "O=C(O)C[C@@H](c1ccc2c(c1)OCC2)N1CC[C@@H](CCCc2ccc3c(n2)NCCC3)C1=O"
Given back: 8
